Assay: COS7 lysate on small-molecule microarray, probe aHis, 635 nm (AID 1123);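 note: z-score combines 667nm fluorescence intensity with signal-to-noise per printed compound spot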
Settings: COS7 cell lysate, fluorescence, higher = more signal
# Lookup of reported composite z-score keyed by entry
ASSAY_READOUT: composite z-score

{"COMPOUND": "COc1ccc(C(O)C2C=CC3C(=O)N(c4ccccc4)C(=O)C3N2Nc2ccccc2F)cc1OCc1ccccc1 (stereo not drawn)", "RESULT": 2.04}
{"COMPOUND": "CCOC(=O)C[C@H]1[C@H](OC(=O)c2cc3ccccc3oc2=O)[C@@H](NC(=O)Cc2ccc(OC)cc2)c2cc(OCCCO)ccc2N1C(=O)c1ccccc1", "RESULT": 0.386}
{"COMPOUND": "COc1ccc([C@H]2OC[C@@H]3CC4(CC=CC4)C(=O)N32)cc1", "RESULT": 0.383}
{"COMPOUND": "COc1ccc(CCNC(=O)[C@@]2(Sc3ccc(C)cc3)CC(=O)N(C3CCCCC3)[C@@H]2c2ccc(CO)cc2I)cc1", "RESULT": 1.58}
{"COMPOUND": "O=C1c2ccccc2[C@](Cc2ccccc2I)(C(=O)NC2CC2)[C@H](c2ccc(CO)cc2)N1C1CCCCC1", "RESULT": 2.12}
{"COMPOUND": "C=CCN1C(=O)[C@]2(O[C@H](CCO)[C@@H]([Si](C)(C)c3ccc(OC)cc3)[C@@H]2C)c2cc(N3C(=O)c4cccc5cccc3c45)ccc21", "RESULT": 0.808}
{"COMPOUND": "COc1ccc([Si](C)(C)[C@@H]2[C@@H](CC(=O)N3Cc4ccccc4C[C@H]3CO)O[C@]3(C(=O)N(C)c4c(Br)cc(C)cc43)[C@H]2C)cc1", "RESULT": 0.498}
{"COMPOUND": "COCCn1c(C(=O)N2CCCC2)cc2c1C[C@H]1CN(C(=O)c3ccccc3)[C@@](Cc3ccc(F)cc3)(C(=O)OC)[C@@H]21", "RESULT": 2.96}
{"COMPOUND": "C=CCOC(=O)[C@@H]1[C@H]2C(=O)O[C@H](c3ccccc3)[C@H](c3ccccc3)N2[C@H](c2ccc(OCCOC(=O)[C@@H]3C[C@@H]4C(=O)N[C@@H](CCCCN(C)C)C(=O)N4[C@@H]3c3ccc(O)cc3)cc2)[C@@]12C(=O)Nc1ccc(I)cc12", "RESULT": 1.83}
{"COMPOUND": "C=CCOC(=O)[C@@H]1[C@H]2C(=O)O[C@H](c3ccccc3)[C@H](c3ccccc3)N2[C@H](c2ccc(OCCOC(=O)[C@@H]3C[C@@H]4C(=O)N[C@@H](Cc5ccccc5)C(=O)N4[C@@H]3c3ccc(O)cc3)cc2)[C@@]12C(=O)Nc1ccc(I)cc12", "RESULT": 1.28}
{"COMPOUND": "C=C(COC)/C(=C/C[C@@H](OC(C)=O)c1ccc(OCCO)cc1)c1cc(C(=O)OC)ccc1OC", "RESULT": 0.669}
{"COMPOUND": "CCOC(=O)C[C@H]1[C@H](OC(=O)c2ccc(C(=O)c3ccccc3)cc2)[C@@H](NC(=O)c2ccc(-c3ccccc3)cc2)c2cc(OCCCO)ccc2N1C(=O)c1ccccc1", "RESULT": 1.31}
{"COMPOUND": "CC(C)C[C@H]1NC(=O)[C@@]23C(=O)N[C@@H](Cc4ccccc4)C2[C@H](C)[C@@]2(C)O[C@H]2C3/C=C/C/C=C\\CNC(=O)[C@H](Cc2ccccc2)NC1=O (stereo partly drawn)", "RESULT": 0.19}
{"COMPOUND": "CCCCCCC#C[Si](O[C@H](c1ccccc1)c1cn([C@H](CO)Cc2ccccc2)nn1)(C(C)C)C(C)C", "RESULT": 1}
{"COMPOUND": "CCN(CC)c1ccc(N2CC=CC34O[C@@H]5/C=C\\CCCOC(=O)C5[C@H]3C(=O)N(CCO)[C@@H]4C2=O)cc1 (stereo partly drawn)", "RESULT": 0.534}
{"COMPOUND": "COc1ccc(NN2C(C(O)c3ccc([N+](=O)[O-])cc3)C=CC3C(=O)N(C4CCCCC4)C(=O)C32)cc1 (stereo not drawn)", "RESULT": 1.48}
{"COMPOUND": "C#CCN(CC=C(C)C)[C@H](CO)c1ccccc1", "RESULT": -0.41}
{"COMPOUND": "CC(C)[C@@H](CO)NC(=O)[C@H]1[C@@H](c2ccccc2)N(c2ccccc2)O[C@@H]1C", "RESULT": 0.46}
{"COMPOUND": "O=C1OCCC/C=C\\[C@H]2OC34C=CCN(Cc5ccccc5)C(=O)[C@H]3N(CCCCCCO)C(=O)[C@@H]4C12 (stereo partly drawn)", "RESULT": -0.19}
{"COMPOUND": "CCOC(=O)[C@H]1C/C=C/C[C@H](C(=O)OCC)C(=O)O[C@H]2[C@@H](OC)O[C@H](CO)[C@@H](OC(=O)Nc3ccc(C#N)cc3)[C@@H]2OC1=O", "RESULT": 0.823}
{"COMPOUND": "CCCCN1CC=CC23O[C@@H]4C=CCOC(=O)[C@@H]4[C@H]2C(=O)N(CCCCCO)[C@@H]3C1=O (stereo partly drawn)", "RESULT": 1.8}
{"COMPOUND": "O=C1OCCC/C=C\\[C@H]2OC34C=CCN(Cn5nnc6ccccc65)C(=O)[C@H]3N(CCCCCCO)C(=O)[C@@H]4C12 (stereo partly drawn)", "RESULT": 2.13}
{"COMPOUND": "[N-]=[N+]=NCc1ccccc1C[C@]1(C(=O)NCC(O)CO)N=C(c2ccc(OCCCO)cc2)O[C@H]1c1ccccc1 (stereo partly drawn)", "RESULT": 2.57}
{"COMPOUND": "CC(C)c1ccc(NN2C(C(O)C(c3ccccc3)c3ccccc3)C=CC3C(=O)N(c4ccccc4)C(=O)C32)cc1 (stereo not drawn)", "RESULT": 2.74}
{"COMPOUND": "CN(C)CCCNC(=O)[C@@]1(c2ccc([N+](=O)[O-])cc2)CC(=O)N(C2CCCCC2)[C@@H]1c1ccc(CO)cc1I", "RESULT": 1.7}
{"COMPOUND": "CC(C)c1ccc(NN2C(C(O)c3cc(C(F)(F)F)cc(C(F)(F)F)c3)C=CC3C(=O)N(c4ccccc4)C(=O)C32)cc1 (stereo not drawn)", "RESULT": 2.43}
{"COMPOUND": "COc1cc(OC)c(C(O)C2C=CC3C(=O)NC(=O)C3N2Nc2ccc(Cl)cc2Cl)cc1Br (stereo not drawn)", "RESULT": 2.99}
{"COMPOUND": "Cc1ccc(S[C@]2(C(=O)NC(C)C)CC(=O)N(Cc3ccccc3Cl)[C@@H]2c2ccc(CO)cc2I)cc1", "RESULT": 1.21}
